# System: Swiss 3T3 fibroblasts
# Experiment Notes: Growth factor mediated mitogenesis (tritiated thymidine incorporation)
# Format: cell-based
# Assay Context: Mus musculus, Swiss-3T3, 24 h, serum
Measured Attribute: IC50 (µM)
Enter your answer as a number in µM; do not include the unit.

The reported IC50 of the compound CN1C(=S)C(C(=O)Nc2ccccc2)c2ccccc21 (centres unmarked) was 19

Recorded result, Cn1c(SSc2c(C(=O)Nc3ccccc3)c3ccccc3n2C)c(C(=O)Nc2ccccc2)c2ccccc21 , IC50: 3

----------
# Tested Target: human PDGF β receptor intracellular tyrosine kinase domain (Homo sapiens, UniProt P09619)
# Construct: human PDGF β receptor intracellular tyrosine kinase domain; made in house; host or cells: SF9 insect cells, recombinant baculovirus; cell lysates used
# Sequence (P09619 554-1106 limits assumed): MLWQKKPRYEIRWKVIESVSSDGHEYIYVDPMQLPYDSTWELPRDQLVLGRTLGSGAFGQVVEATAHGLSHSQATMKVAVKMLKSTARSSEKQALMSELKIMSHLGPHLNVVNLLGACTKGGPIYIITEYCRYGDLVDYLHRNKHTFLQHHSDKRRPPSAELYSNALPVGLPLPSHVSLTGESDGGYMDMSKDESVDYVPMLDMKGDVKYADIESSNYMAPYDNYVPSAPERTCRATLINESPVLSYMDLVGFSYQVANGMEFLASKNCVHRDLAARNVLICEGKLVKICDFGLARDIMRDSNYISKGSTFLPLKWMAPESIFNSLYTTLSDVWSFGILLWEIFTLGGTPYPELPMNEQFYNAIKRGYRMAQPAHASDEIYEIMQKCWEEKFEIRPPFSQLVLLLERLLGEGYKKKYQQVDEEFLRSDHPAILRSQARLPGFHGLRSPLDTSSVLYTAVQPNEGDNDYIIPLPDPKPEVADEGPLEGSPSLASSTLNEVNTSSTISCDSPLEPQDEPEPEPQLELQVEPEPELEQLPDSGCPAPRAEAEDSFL
# Experiment Notes: PDGF receptor tyrosine kinase inhibition assay (P^32 incorporation in Glu-Tyr)
# Format: biochemical
# Assay Context: at 100 μM; PDGF-R; read-out: % Inhibition at 100 μM (PDGFR TK)
Please use true whenever inhibition at 100 µM is not below 8%, and false whenever it is.

Exercise: Given the entry Cn1c(SSc2c(C(=O)Nc3ccccc3)c3cc(C#N)ccc3n2C)c(C(=O)Nc2ccccc2)c2cc(C#N)ccc21 , answer whether its inhibition at 100 µM meets or surpasses 8%.
Solution: true

Exercise: Assess whether reported inhibition at 100 µM for CCOC(=O)CCc1c(SSc2[nH]c3cc(C)ccc3c2CCC(=O)OCC)[nH]c2cc(C)ccc12 sits at 8% or higher.
Solution: false

Exercise: Hi, just wondering whether Cn1c(SSc2c(C(=O)Nc3ccccc3)c3ccc(Cl)cc3n2C)c(C(=O)Nc2ccccc2)c2ccc(Cl)cc21 shows inhibition at 100 µM of 8% or higher.
Solution: false

Exercise: Threshold query (inhibition at 100 µM >= 8%) on COC(=O)c1ccc(CNC(=O)CCc2c(SSc3[nH]c4ccccc4c3CCC(=O)NCc3ccc(C(=O)OC)c(O)c3)[nH]c3ccccc23)cc1O
Solution: true

Exercise: Check this compound for inhibition at 100 µM at or above 8%: Cn1c(SSc2c(C(=O)Nc3ccc(C(=O)O)cc3)c3ccccc3n2C)c(C(=O)Nc2ccc(C(=O)O)cc2)c2ccccc21
Solution: true

Exercise: Could you please find out whether Cn1c(SSc2c(C(=O)Nc3ccccc3)c3cc(C(F)(F)F)ccc3n2C)c(C(=O)Nc2ccccc2)c2cc(C(F)(F)F)ccc21 has inhibition at 100 µM that meets 8% or exceeds it?
Solution: true

Exercise: Is inhibition at 100 µM for COc1ccc2c(c1)c(C(=O)Nc1ccccc1)c(SSc1c(C(=O)Nc3ccccc3)c3cc(OC)ccc3n1C)n2C at or above 8%?
Solution: true

Exercise: Does the reported inhibition at 100 µM for Cn1c(SSc2c(C(=O)Nc3ccccc3)c3c(Cl)cccc3n2C)c(C(=O)Nc2ccccc2)c2c(Cl)cccc21 fall at or above the 8% mark?
Solution: true

Exercise: Quick check, inhibition at 100 µM >= 8%? Cc1ccc2c(c1)c(C(=O)Nc1ccccc1)c(SSc1c(C(=O)Nc3ccccc3)c3cc(C)ccc3n1C)n2C
Solution: true

Exercise: Please tell me: is the compound NC(Cc1c(SSc2[nH]c3ccccc3c2CC(N)C(=O)NCc2ccccc2)[nH]c2ccccc12)C(=O)NCc1ccccc1 (racemic) at or over 8% in terms of inhibition at 100 µM?
Solution: true

Exercise: Check this compound for inhibition at 100 µM at or above 8%: O=C(CCc1c(SSc2[nH]c3ccccc3c2CCC(=O)Nc2ccccc2)[nH]c2ccccc12)Nc1ccccc1
Solution: true

Exercise: Check if inhibition at 100 µM >= 8% (inclusive). Item: Cc1cccc2c(C(=O)Nc3ccccc3)c(SSc3c(C(=O)Nc4ccccc4)c4cccc(C)c4n3C)n(C)c12
Solution: false

Exercise: Decide: inhibition at 100 µM of Cc1cccc2c1c(C(=O)Nc1ccccc1)c(SSc1c(C(=O)Nc3ccccc3)c3c(C)cccc3n1C)n2C >= 8%?
Solution: false

Exercise: Threshold query (inhibition at 100 µM >= 8%) on Cc1ccc(S(=O)(=O)c2c(SSc3[nH]c4ccccc4c3S(=O)(=O)c3ccc(C)cc3)[nH]c3ccccc23)cc1
Solution: true

Exercise: # bool: inhibition at 100 µM of Cn1c(SSc2c(C(=O)Nc3ccccc3)c3cc(F)ccc3n2C)c(C(=O)Nc2ccccc2)c2cc(F)ccc21 >= 8%
Solution: true

Exercise: Check this compound for inhibition at 100 µM at or above 8%: O=C(NCc1ccccc1)C(Cc1c(SSc2[nH]c3ccccc3c2CC(NC(=O)C(F)(F)F)C(=O)NCc2ccccc2)[nH]c2ccccc12)NC(=O)C(F)(F)F (racemic)
Solution: true

Exercise: Confirm if inhibition at 100 µM reported for the compound O=C(CC1C(=S)Nc2ccccc21)NCc1ccccc1 (stereo not shown) is 8% or above.
Solution: true

Exercise: Dear colleague, could you confirm whether Cc1ccc2c(C(=O)Nc3ccccc3)c(SSc3c(C(=O)Nc4ccccc4)c4ccc(C)cc4n3C)n(C)c2c1 has inhibition at 100 µM at or above 8%?
Solution: false

Exercise: Is reported inhibition at 100 µM greater than or equal to 8% here: O=C(CCc1c(SSc2[nH]c3ccccc3c2CCC(=O)NCCc2ccccc2)[nH]c2ccccc12)NCCc1ccccc1
Solution: true

Exercise: Is inhibition at 100 µM at least 8%? Consider Cn1c(SSc2c(C(=O)Nc3ccccc3)c3ccccc3n2C)c(C(=O)Nc2ccccc2)c2ccccc21
Solution: false

Exercise: Please tell me: is the compound Cn1c(SSc2c(C(=O)NCC(=O)O)c3ccccc3n2C)c(C(=O)NCC(=O)O)c2ccccc21 at or over 8% in terms of inhibition at 100 µM?
Solution: true

Exercise: Is inhibition at 100 µM for CONC(=O)CCc1c(SSc2[nH]c3ccccc3c2CCC(=O)NOC)[nH]c2ccccc12 at or above 8%?
Solution: true

Exercise: Identify whether the reported inhibition at 100 µM of the following compound is 8% or greater: COC(=O)CC1C(=S)Nc2ccccc21 (stereo not shown) [Compound 3, methyl 2-(2-thioxo-3-indolinyl)acetate]
Solution: true

Exercise: Please tell me: is the compound COC(=O)CCCc1c(SSc2[nH]c3ccccc3c2CCCC(=O)OC)[nH]c2ccccc12 at or over 8% in terms of inhibition at 100 µM?
Solution: false

Exercise: Is reported inhibition at 100 µM greater than or equal to 8% here: Cn1c(SSc2c(C(=O)Nc3ccccc3)c3cc(Br)ccc3n2C)c(C(=O)Nc2ccccc2)c2cc(Br)ccc21
Solution: false

Exercise: Exam item: decide whether the reported inhibition at 100 µM for CCOC(=O)Cc1c(SSc2c(CC(=O)OCC)c3ccccc3n2C)n(C)c2ccccc12 is at least 8%.
Solution: true

Exercise: hey, is inhibition at 100 µM for this one >= 8%? Cn1c(SSc2c(CC(=O)O)c3ccccc3n2C)c(CC(=O)O)c2ccccc21
Solution: false

----------
# Tested Target: human PDGF β receptor intracellular tyrosine kinase domain (Homo sapiens, UniProt P09619)
# Construct: human PDGF β receptor intracellular tyrosine kinase domain; made in house; host or cells: SF9 insect cells, recombinant baculovirus; cell lysates used
# Experiment Notes: PDGF receptor tyrosine kinase inhibition assay (P^32 incorporation in Glu-Tyr)
# Format: biochemical
# Assay Context: at 100 μM; PDGF-R; read-out: % Inhibition at 100 μM (PDGFR TK)
Please mark t if the recorded inhibition at 100 µM is equal to or greater than 10%, and f if it falls below.

Exercise: hey, is inhibition at 100 µM for this one >= 10%? O=C(CCCc1c(SSc2[nH]c3ccccc3c2CCCC(=O)NCc2ccccc2)[nH]c2ccccc12)NCc1ccccc1
Solution: f

Exercise: # check: inhibition at 100 µM of Cn1c(SSc2c(C(=O)Nc3ccccc3)c3cc(Cl)ccc3n2C)c(C(=O)Nc2ccccc2)c2cc(Cl)ccc21 is greater than or equal to 10%
Solution: t

Exercise: Item Cn1c(SSc2c(C(N)=O)c3ccccc3n2C)c(C(N)=O)c2ccccc21 with inhibition at 100 µM of 10% or above?
Solution: t

Exercise: Confirm if inhibition at 100 µM reported for the compound CN(C)C(=O)c1c(SSc2c(C(=O)N(C)C)c3ccccc3n2C)n(C)c2ccccc12 is 10% or above.
Solution: t

Exercise: Does inhibition at 100 µM meet or surpass 10% for Cn1c(SSc2c(C(=O)Nc3ccccc3)c3cccnc3n2C)c(C(=O)Nc2ccccc2)c2cccnc21 ?
Solution: t

Exercise: Determine whether measured inhibition at 100 µM meets or exceeds 10% for N#CCc1c(SSc2[nH]c3ccccc3c2CC#N)[nH]c2ccccc12 [Compound 35, 2,2'-dithiobis[3-indolylacetonitrile]]
Solution: t

Exercise: Say whether COc1cccc2c1c(C(=O)Nc1ccccc1)c(SSc1c(C(=O)Nc3ccccc3)c3c(OC)cccc3n1C)n2C shows inhibition at 100 µM of 10% or more.
Solution: t

Exercise: Determine whether measured inhibition at 100 µM meets or exceeds 10% for COc1ccc2c(C(=O)Nc3ccccc3)c(SSc3c(C(=O)Nc4ccccc4)c4ccc(OC)cc4n3C)n(C)c2c1
Solution: f

Exercise: Hello, I need to know if O=C(CCc1c(SSc2[nH]c3ccccc3c2CCC(=O)NCc2ccc(C(=O)O)cc2)[nH]c2ccccc12)NCc1ccc(C(=O)O)cc1 has measured inhibition at 100 µM not below 10%. Thanks!
Solution: t

Exercise: Exam item: decide whether the reported inhibition at 100 µM for O=C(Cc1c(SSc2[nH]c3ccccc3c2CC(=O)NCc2ccccc2)[nH]c2ccccc12)NCc1ccccc1 is at least 10%.
Solution: t

Exercise: Confirm if inhibition at 100 µM reported for the compound Cn1c(SSc2c(C(=O)NCc3ccccc3)c3ccccc3n2C)c(C(=O)NCc2ccccc2)c2ccccc21 is 10% or above.
Solution: f

Exercise: Given the entry COC(=O)CCCC1C(=S)N(C)c2ccccc21 (centres unmarked) , answer whether its inhibition at 100 µM meets or surpasses 10%.
Solution: f

Exercise: Could you please find out whether CN(C(=O)c1c(SSc2c(C(=O)N(C)c3ccccc3)c3ccccc3n2C)n(C)c2ccccc12)c1ccccc1 has inhibition at 100 µM that meets 10% or exceeds it?
Solution: t

Exercise: # bool: inhibition at 100 µM of NC(=O)CCc1c(SSc2[nH]c3ccccc3c2CCC(N)=O)[nH]c2ccccc12 >= 10%
Solution: t
